- Tested on: Serum-Lipoproteine
- protocol_summary: Effect on serum lipoproteins (cholesterol in serum and in ultracentrifuge fractions) in rats after 7 days of oral treatment
- Type: in vivo, männlichen Wistar-Ratten
- test_parameters: Dosis 10 mg/kg/Tag, oral (gavage), 7 days, pooled serum
Please go through the items and note down their % Veränderung des Cholesterins gegenüber Kontrolle in der Serum-Lipoprotein-Fraktion LDL.
Give the quantity in %, number only.

Query :: // map Cc1ccc(S(=O)(=O)N(C)C=Nc2ccc(Oc3ccc(Cl)cc3Cl)cc2)cc1 [Beispiel 13] to recorded % Veränderung des Cholesterins gegenüber Kontrolle in der Serum-Lipoprotein-Fraktion LDL (system: Serum-Lipoproteine)
Result :: -39

Query :: // map C#CCN(C=Nc1ccc(Oc2ccccc2)cc1)S(=O)(=O)c1ccc(C)cc1 [Beispiel 7] to recorded % Veränderung des Cholesterins gegenüber Kontrolle in der Serum-Lipoprotein-Fraktion LDL (system: Serum-Lipoproteine)
Result :: -22

Query :: // map Cc1ccc(S(=O)(=O)N(C)C=Nc2ccc(Sc3ccccc3)cc2)cc1 [Beispiel 25] to recorded % Veränderung des Cholesterins gegenüber Kontrolle in der Serum-Lipoprotein-Fraktion LDL (system: Serum-Lipoproteine)
Result :: -45

Query :: // map Cc1ccc(S(=O)(=O)N(C)C=Nc2ccc(Cl)cc2C)cc1 [Beispiel 38] to recorded % Veränderung des Cholesterins gegenüber Kontrolle in der Serum-Lipoprotein-Fraktion LDL (system: Serum-Lipoproteine)
Result :: -36

Query :: // map Cc1ccc(S(=O)(=O)N(C)C=Nc2ccc(Oc3ccccc3)cc2)cc1 [Beispiel 12] to recorded % Veränderung des Cholesterins gegenüber Kontrolle in der Serum-Lipoprotein-Fraktion LDL (system: Serum-Lipoproteine)
Result :: -42
